Each entry below lists one item and its recorded glycan array binding signal (z-score) value.
Target: Neu5Ac(a2-3)Gal(b1-4)GlcNAc
Experiment: glycan array binding signal (z-score within array); higher = stronger binding
Details: glycan notation: IUPAC condensed, linker removed
Many of the other results were omitted from the sample, so the strongest signals are more common in it than they were.
I'd appreciate a reply containing only the number, no unit.

State the recorded glycan array binding signal (z-score) for this entry: SGC, Q9M345 (protein) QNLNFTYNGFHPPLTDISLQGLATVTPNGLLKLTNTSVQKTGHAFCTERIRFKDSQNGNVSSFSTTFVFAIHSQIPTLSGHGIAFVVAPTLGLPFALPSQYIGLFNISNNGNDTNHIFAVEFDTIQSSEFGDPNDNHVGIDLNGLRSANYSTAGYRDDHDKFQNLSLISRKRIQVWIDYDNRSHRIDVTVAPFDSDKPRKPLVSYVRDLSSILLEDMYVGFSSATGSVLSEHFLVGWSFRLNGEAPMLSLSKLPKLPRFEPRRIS
-0.311

Check Gal 1 (Mus musculus), P16045 (protein) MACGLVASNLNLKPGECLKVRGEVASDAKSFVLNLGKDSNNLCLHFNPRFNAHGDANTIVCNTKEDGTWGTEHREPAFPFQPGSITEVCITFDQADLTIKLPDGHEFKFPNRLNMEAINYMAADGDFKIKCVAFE too.
-0.256

Next:
State the recorded glycan array binding signal (z-score) for this entry: AAA (Anguilla anguilla), Q7SIC1 (protein) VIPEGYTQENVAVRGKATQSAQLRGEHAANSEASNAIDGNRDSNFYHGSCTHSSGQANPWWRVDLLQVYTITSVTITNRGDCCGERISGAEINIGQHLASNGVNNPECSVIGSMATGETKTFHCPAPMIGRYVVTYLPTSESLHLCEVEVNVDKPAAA
-0.086
